Molecular target: HuBChE (Homo sapiens, UniProt P06276)
Sequence (P06276 29-602): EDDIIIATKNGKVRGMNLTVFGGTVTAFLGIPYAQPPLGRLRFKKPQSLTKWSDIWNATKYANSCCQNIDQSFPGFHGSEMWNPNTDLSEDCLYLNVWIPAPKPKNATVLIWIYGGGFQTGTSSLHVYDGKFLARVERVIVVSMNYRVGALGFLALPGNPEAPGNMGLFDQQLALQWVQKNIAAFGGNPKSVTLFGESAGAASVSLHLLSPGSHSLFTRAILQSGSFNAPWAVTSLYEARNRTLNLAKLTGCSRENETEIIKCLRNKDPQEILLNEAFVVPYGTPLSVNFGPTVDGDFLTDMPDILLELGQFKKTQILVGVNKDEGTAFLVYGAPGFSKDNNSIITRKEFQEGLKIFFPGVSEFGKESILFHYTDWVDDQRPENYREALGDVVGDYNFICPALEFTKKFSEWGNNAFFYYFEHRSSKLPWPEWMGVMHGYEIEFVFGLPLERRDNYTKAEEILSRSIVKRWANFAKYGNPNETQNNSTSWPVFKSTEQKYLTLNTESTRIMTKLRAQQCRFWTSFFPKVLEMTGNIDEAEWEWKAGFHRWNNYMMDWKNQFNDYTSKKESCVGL
measurement.label: Ki (µM)
Note: unit µM is implicit; provide only the numeric part.

Enquiry: State the recorded Ki for this entry: CCN(CC)C(=O)c1cccc(C)c1 [deet, N,N-Diethyl-3-methylbenzamide]
Return: 370

This collection of values is drawn from paper PMC2739159.
